Molecular target: UniProt:P08183
Assay: TP_TRANSPORTER: increase in Calcein-AM intracellular accumulation (Calcein-AM: ? uM, Maprotiline: 100 uM) in MDR1-expressing MDCKII cells
Conditions: dog, probe Calcein-AM
RECORDED METRIC: inhibition at 100 µM (%)
Dear colleague, please return just the value in %, with no unit written.

Sample `CNCCCC12CCC(c3ccccc31)c1ccccc12` — what was its inhibition at 100 µM?
36.7

* * *

Target: UniProt P08183
Assay: TP_TRANSPORTER: increase in Calcein-AM intracellular accumulation (Calcein-AM: ? uM, Metergoline: 100 uM) in MDR1-expressing MDCKII cells
Assay type: functional, cell-based, MDCK-II
Conditions: dog, probe Calcein-AM
RECORDED METRIC: inhibition at 100 µM (%)
Dear colleague, please return just the value in %, with no unit written.

Please state recorded inhibition at 100 µM (tested on UniProt P08183) of `CN1C[C@H](CNC(=O)OCc2ccccc2)C[C@@H]2c3cccc4c3c(cn4C)C[C@H]21`
84.4

* * *

Biological target: MDR1 (P-glycoprotein, ABCB1) (Homo sapiens)
Test: TP_TRANSPORTER: increase in Calcein-AM intracellular accumulation (Calcein-AM: ? uM, Fluvoxamine: 100 uM) in MDR1-expressing MDCKII cells
Type: functional, cell-based, MDCK-II
Conditions: dog, probe Calcein-AM
RECORDED METRIC: inhibition at 100 µM (%)
Dear colleague, please return just the value in %, with no unit written.

Sample COCCCC/C(=N\OCCN)c1ccc(C(F)(F)F)cc1 [FLUVOXAMINE] — what was its inhibition at 100 µM?
20.8

* * *

Target: MDR1 (P-glycoprotein, ABCB1) (Homo sapiens, UniProt P08183)
Sequence (P08183 whole entry): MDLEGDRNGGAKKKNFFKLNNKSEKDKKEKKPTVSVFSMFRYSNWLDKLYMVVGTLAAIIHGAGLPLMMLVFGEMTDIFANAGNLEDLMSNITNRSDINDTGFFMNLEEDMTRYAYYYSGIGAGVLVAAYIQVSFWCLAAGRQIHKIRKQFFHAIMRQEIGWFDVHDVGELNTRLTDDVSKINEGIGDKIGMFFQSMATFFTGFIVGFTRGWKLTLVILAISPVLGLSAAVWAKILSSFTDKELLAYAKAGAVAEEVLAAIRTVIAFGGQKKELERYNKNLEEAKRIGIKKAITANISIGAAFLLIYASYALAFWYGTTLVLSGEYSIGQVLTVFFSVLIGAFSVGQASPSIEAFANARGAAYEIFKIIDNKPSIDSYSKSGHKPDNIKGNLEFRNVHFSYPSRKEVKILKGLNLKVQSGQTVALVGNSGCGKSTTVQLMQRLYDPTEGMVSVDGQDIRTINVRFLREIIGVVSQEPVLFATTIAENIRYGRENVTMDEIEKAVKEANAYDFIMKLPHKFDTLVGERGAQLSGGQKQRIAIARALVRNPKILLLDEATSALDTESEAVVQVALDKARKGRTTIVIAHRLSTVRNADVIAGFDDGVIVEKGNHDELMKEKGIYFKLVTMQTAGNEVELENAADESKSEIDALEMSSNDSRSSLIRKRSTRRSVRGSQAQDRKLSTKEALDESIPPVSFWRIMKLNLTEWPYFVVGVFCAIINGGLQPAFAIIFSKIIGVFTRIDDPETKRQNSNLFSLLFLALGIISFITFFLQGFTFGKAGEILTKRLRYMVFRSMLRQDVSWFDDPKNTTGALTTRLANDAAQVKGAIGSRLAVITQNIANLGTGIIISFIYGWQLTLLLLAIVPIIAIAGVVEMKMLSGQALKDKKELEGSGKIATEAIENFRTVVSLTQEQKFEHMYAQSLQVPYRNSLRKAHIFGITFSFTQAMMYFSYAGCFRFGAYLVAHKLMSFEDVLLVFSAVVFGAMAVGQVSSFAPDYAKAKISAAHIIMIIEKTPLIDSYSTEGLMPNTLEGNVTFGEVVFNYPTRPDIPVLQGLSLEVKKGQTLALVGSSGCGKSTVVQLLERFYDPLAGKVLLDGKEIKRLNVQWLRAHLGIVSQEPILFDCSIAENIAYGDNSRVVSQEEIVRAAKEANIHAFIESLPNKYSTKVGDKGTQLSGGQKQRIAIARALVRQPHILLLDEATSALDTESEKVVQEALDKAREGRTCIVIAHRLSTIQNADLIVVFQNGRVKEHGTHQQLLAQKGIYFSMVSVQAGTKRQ
Experiment: TP_TRANSPORTER: increase in Calcein-AM intracellular accumulation (Calcein-AM: ? uM, Doxepin: 100 uM) in MDR1-expressing MDCKII cells
Type: functional, cell-based, MDCK-II
Details: dog, probe Calcein-AM
RECORDED METRIC: inhibition at 100 µM (%)
Dear colleague, please return just the value in %, with no unit written.

Sample CN(C)CCC=C1c2ccccc2COc2ccccc21 [DOXEPIN] — what was its inhibition at 100 µM?
15.3
